Assign log10 MBC to each entry below.
- Test system: S. epidermidis ATCC 12228
- test-protocol: micro-dilution broth method (MIC, MBC)
- Type: cell-based, Staphylococcus epidermidis
- measurement-setup: S. epidermidis ATCC 12228, value in brackets
Log10 applied to MBC; unit prior to transform: µM/mL.

O=[N+]([O-])[O-].[Ag+] [AgNO3, Silver nitrate] | -1.05
Cc1ncc([N+](=O)[O-])n1CCO.Cc1ncc([N+](=O)[O-])n1CCO.Cc1ncc([N+](=O)[O-])n1CCO.Cc1ncc([N+](=O)[O-])n1CCO.O=S(=O)([O-])[O-].[Ag+].[Ag+] [[Ag(MTZ)2]2SO4] | -1.85
Cc1ncc([N+](=O)[O-])n1CCO | 0.47
O=S(=O)([O-])[O-].[Ag+].[Ag+] [Ag2SO4, silver sulfate] | -1.00

Proceeding to the next compound to report its log10 MBC.
### Prompt What measured log10 MBC goes with Cc1ncc([N+](=O)[O-])n1CCO.Cc1ncc([N+](=O)[O-])n1CCO.O=[N+]([O-])[O-].[Ag+] [[Ag(MTZ)2NO3]] ?
### Response -0.70

---

- System: S. typhimurium ATCC 14028
- test-protocol: micro-dilution broth method (MIC, MBC)
- Format: cell-based, Salmonella Typhimurium
- measurement-setup: S. typhimurium ATCC 14028
measure-name: MBC (mg/L)
Numbers only, in mg/L.

Examples from the recorded data:
Cc1ncc([N+](=O)[O-])n1CCO.Cc1ncc([N+](=O)[O-])n1CCO.O=[N+]([O-])[O-].[Ag+] [[Ag(MTZ)2NO3]] | 31.3
O=[N+]([O-])[O-].[Ag+] [AgNO3, Silver nitrate] | 15.6
Cc1ncc([N+](=O)[O-])n1CCO.Cc1ncc([N+](=O)[O-])n1CCO.Cc1ncc([N+](=O)[O-])n1CCO.Cc1ncc([N+](=O)[O-])n1CCO.O=S(=O)([O-])[O-].[Ag+].[Ag+] [[Ag(MTZ)2]2SO4] | 62.5

# input for lookup
### Prompt Which MBC value is on record for O=S(=O)([O-])[O-].[Ag+].[Ag+] [Ag2SO4, silver sulfate] ?
### Response 250

---

- System: Balb/c 3T3 cells
- test-protocol: LDH leakage assay (membrane integrity), 72 h exposure
- Assay type: cell-based, murine
- measurement-setup: Balb/c 3T3, LDH, mean ± SD, n = 3
pIC50: −log10 of the molar value.
measure-name: pIC50

### Prompt Request the reported pIC50 associated with N.N.[Cl][Pt][Cl] [Cisplatin, cisplatin]
### Response < 5.00

---

- Tested on: K. pneumoniae ATCC 13883
- test-protocol: micro-dilution broth method (MIC, MBC)
- Format: cell-based, Klebsiella pneumoniae
- measurement-setup: K. pneumoniae ATCC 13883, value in brackets
measure-name: MBC

Some molecules with recorded MBC:
Cc1ncc([N+](=O)[O-])n1CCO.Cc1ncc([N+](=O)[O-])n1CCO.O=[N+]([O-])[O-].[Ag+] [[Ag(MTZ)2NO3]] | 0.1 µM/mL
O=S(=O)([O-])[O-].[Ag+].[Ag+] [Ag2SO4, silver sulfate] | 0.1 µM/mL
Cc1ncc([N+](=O)[O-])n1CCO | 5.85 µM/mL

Provide each entry's MBC from the list below.
1. Cc1ncc([N+](=O)[O-])n1CCO.Cc1ncc([N+](=O)[O-])n1CCO.Cc1ncc([N+](=O)[O-])n1CCO.Cc1ncc([N+](=O)[O-])n1CCO.O=S(=O)([O-])[O-].[Ag+].[Ag+] [[Ag(MTZ)2]2SO4]
2. O=[N+]([O-])[O-].[Ag+] [AgNO3, Silver nitrate]

### Response
1. 0.03 µM/mL
2. 0.049 µM/mL
